Tested on: RARb:RXRa (NR concentration 270 nM, RXRa partner concentration 90 nM)
Experiment: PBM binding z-score (relative to random genomic background probes); higher = stronger binding; sequences stand for … in GC…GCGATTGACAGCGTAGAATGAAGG
Recorded PBM binding z-score for the following sequences

Which PBM binding z-score is reported with RARb:RXRa (NR concentration 270 nM, RXRa partner concentration 90 nM) for this entry: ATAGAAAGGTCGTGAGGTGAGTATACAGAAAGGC ? 3.97

Which PBM binding z-score is reported with RARb:RXRa (NR concentration 270 nM, RXRa partner concentration 90 nM) for this entry: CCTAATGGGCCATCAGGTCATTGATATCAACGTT ? 2.15

Which PBM binding z-score is reported with RARb:RXRa (NR concentration 270 nM, RXRa partner concentration 90 nM) for this entry: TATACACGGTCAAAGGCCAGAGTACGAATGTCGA ? 2.85

Which PBM binding z-score is reported with RARb:RXRa (NR concentration 270 nM, RXRa partner concentration 90 nM) for this entry: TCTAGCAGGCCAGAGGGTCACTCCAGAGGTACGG ? 1.89

Which PBM binding z-score is reported with RARb:RXRa (NR concentration 270 nM, RXRa partner concentration 90 nM) for this entry: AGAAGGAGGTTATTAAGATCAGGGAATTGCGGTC ? 1.26

Which PBM binding z-score is reported with RARb:RXRa (NR concentration 270 nM, RXRa partner concentration 90 nM) for this entry: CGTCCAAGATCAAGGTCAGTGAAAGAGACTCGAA ? 3.28
